# assay_system: BuChE (Equus caballus, UniProt P81908)
# Sequence (P81908 whole entry): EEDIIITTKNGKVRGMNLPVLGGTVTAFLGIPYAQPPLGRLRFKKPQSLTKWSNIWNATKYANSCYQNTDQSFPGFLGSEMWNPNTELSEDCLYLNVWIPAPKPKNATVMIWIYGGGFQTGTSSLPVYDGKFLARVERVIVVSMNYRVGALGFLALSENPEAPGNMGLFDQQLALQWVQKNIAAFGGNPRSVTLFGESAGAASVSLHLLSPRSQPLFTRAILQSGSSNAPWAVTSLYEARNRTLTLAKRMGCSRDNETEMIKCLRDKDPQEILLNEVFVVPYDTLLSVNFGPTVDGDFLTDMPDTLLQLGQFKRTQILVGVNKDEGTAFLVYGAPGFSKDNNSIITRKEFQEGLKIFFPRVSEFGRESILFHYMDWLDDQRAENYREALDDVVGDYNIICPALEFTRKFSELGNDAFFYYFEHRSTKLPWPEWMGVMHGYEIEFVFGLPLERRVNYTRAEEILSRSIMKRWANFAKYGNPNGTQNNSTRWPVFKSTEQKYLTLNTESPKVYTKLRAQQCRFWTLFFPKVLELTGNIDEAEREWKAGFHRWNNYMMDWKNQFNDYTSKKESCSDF
# assay_protocol: Ellman colorimetric assay
# Type: biochemical
# Set-up: gene BCHE; native enzyme from equine serum, purchased from Sigma-Aldrich
# experimental_conditions: read-out: IC50 ± SD ^a / BuChE ^a
pIC50: −log10 of the molar value.
# pIC50 listing for each entry below
endpoint_name: pIC50

                           molecular_string  endpoint_name  numeric_value
0        CCCCCCNC(=O)Oc1ccc2[nH]cc(CCN)c2c1          pIC50           7.56
1  CCCNC(=O)Oc1ccc2[nH]cc(CCNCc3ccccc3)c2c1          pIC50           7.74
2  O=C(Oc1ccc2[nH]cc(CCNCc3ccccc3)c2c1)N1CCCCC1          pIC50           7.47
3  CCN(CC)C(=O)Oc1ccc2[nH]cc(CCNCc3ccccc3)c2c1          pIC50           7.14
4  CON(C)C(=O)Oc1ccc2[nH]cc(CCNCc3ccccc3)c2c1          pIC50           7.23
5  CCCCN(CCCC)C(=O)Oc1ccc2[nH]cc(CCNCc3ccccc3)c2c1          pIC50           7.01
6  CN(C)C(=O)Oc1ccc2[nH]cc(CCNCc3ccccc3)c2c1          pIC50           6.88
7  CCCCCCNC(=O)Oc1ccc2[nH]cc(CCNCc3ccccc3)c2c1          pIC50           7.72
8  O=C(Nc1ccccc1)Oc1ccc2[nH]cc(CCNCc3ccccc3)c2c1          pIC50           6.96
9         CCCCCNC(=O)Oc1ccc2[nH]cc(CCN)c2c1          pIC50           6.92

====

# log10 of KI (inactivation) listing for each entry below
# assay_system: BuChE (Equus caballus, UniProt P81908)
# assay_protocol: time-dependent Ellman assay, kobs analysis
# Design: gene BCHE
# experimental_conditions: read-out: kc; equilibrium constant of reversible step before carbamylation; covalent
endpoint_name: log10 of KI (inactivation) (log10 of the value in nM)

>>> df
                           molecular_string               endpoint_name  numeric_value
0  O=C(NC1CC1)Oc1ccc2[nH]cc(CCN(Cc3ccccc3)Cc3ccccc3)c2c1  log10 of KI (inactivation)           0.20
1  O=C(Oc1ccc2[nH]cc(CCNCc3ccccc3)c2c1)N1CCCCC1  log10 of KI (inactivation)           0.71
2  CCCCCCCNC(=O)Oc1ccc2[nH]cc(CCN(Cc3ccccc3)Cc3ccccc3)c2c1  log10 of KI (inactivation)           0.41
3       CCN(C)C(=O)Oc1cccc([C@H](C)N(C)C)c1  log10 of KI (inactivation)           1.75
4  CCCCCNC(=O)Oc1ccc2[nH]cc(CCN(Cc3ccccc3)Cc3ccccc3)c2c1  log10 of KI (inactivation)           0.85

====

# assay_system: BuChE (Equus caballus, UniProt P81908)
# assay_protocol: Ellman colorimetric assay
# Format: biochemical
# Parameters: gene BCHE; native enzyme from equine serum, purchased from Sigma-Aldrich
# experimental_conditions: BTCI substrate, […] min preincubation […] °C, pH […]; pseudo-irreversible carbamate, covalent; read-out: IC50 ± SD ^a / BuChE ^a
pIC50: −log10 of the molar value.
endpoint_name: pIC50

>>> df
                      molecular_string  endpoint_name  numeric_value
0  CCCCCCCNC(=O)Oc1ccc2[nH]cc(CCN)c2c1          pIC50           8.00

====

# assay_protocol: in vitro
# Set-up: MTT cytotoxicity, absorbance at 570 nm, HT-22 mouse hippocampal neuronal cells
# experimental_conditions: mouse, ht-22 hippocampal neuronal cells; read-out: IC50 ± SD / HT-22 ^a
# Method: The cell lines present in this study were purchased from the China Center for Type Collection (CCTCC, China). For cytotoxicity assay, HT-22, BV2, SH-SY5Y, HepG2, and LO2 cells were incubated in 96-well plates at the density of 5 × 10³ per well. […] The OD value of each well was detected at 570 nm using a microplate reader (Bio-Rad Laboratories, CA, United States). The IC50 values were calculated using IBM SPSS Statistics 25.0 software. […]
endpoint_name: CC50 at 24 h (µM)

                           molecular_string  operator  numeric_value
0  O=C(Oc1ccc2[nH]cc(CCNCc3ccccc3)c2c1)N1CCOCC1         =           51.3
1  CCCCNC(=O)Oc1ccc2[nH]cc(CCNCc3ccccc3)c2c1         =           18.5
2  O=C(Oc1ccc2[nH]cc(CCNCc3ccccc3)c2c1)N1CCC1         =           57.8
3       CCCCCCCNC(=O)Oc1ccc2[nH]cc(CCN)c2c1         =           26.1
4  CCCCN(CCCC)C(=O)Oc1ccc2[nH]cc(CCNCc3ccccc3)c2c1         =           3.87
5  CON(C)C(=O)Oc1ccc2[nH]cc(CCNCc3ccccc3)c2c1         =           50.4
6  O=C(NC1CC1)Oc1ccc2[nH]cc(CCNCc3ccccc3)c2c1         =             15
7  O=C(Oc1ccc2[nH]cc(CCNCc3ccccc3)c2c1)N(c1ccccc1)c1ccccc1         =           0.54
8         CCCCCNC(=O)Oc1ccc2[nH]cc(CCN)c2c1         >            100
9  O=C(NC1CCCCC1)Oc1ccc2[nH]cc(CCNCc3ccccc3)c2c1         =           11.6

====

# assay_system: UniProt P81908
# assay_protocol: Ellman colorimetric assay
# Assay type: biochemical
# Parameters: gene BCHE; native enzyme from equine serum, purchased from Sigma-Aldrich
# experimental_conditions: read-out: IC50 ± SD / BuChE ^a
Entries whose IC50 is below 3 nM take y; entries at or above 3 nM take n.

                           molecular_string  category_label
0  CCCCCNC(=O)Oc1ccc2[nH]cc(CCN(Cc3ccccc3)Cc3ccccc3)c2c1               y
1  O=C(NC1CC1)Oc1ccc2[nH]cc(CCN(Cc3ccccc3)Cc3ccccc3)c2c1               n
2  CCCCN(CCCC)C(=O)Oc1ccc2[nH]cc(CCN(Cc3ccccc3)Cc3ccccc3)c2c1               n
3  CN(C(=O)Oc1ccc2[nH]cc(CCN(Cc3ccccc3)Cc3ccccc3)c2c1)c1ccccc1               n

====

# assay_protocol: in vitro
# Design: MTT cytotoxicity, absorbance at 570 nm, HT-22 mouse hippocampal neuronal cells
# experimental_conditions: mouse, ht-22 hippocampal neuronal cells; read-out: IC50 ± SD / HT-22 ^a
# CC50 at 24 h listing for each entry below
endpoint_name: CC50 at 24 h

>>> print(df.to_string())
                           molecular_string  endpoint_name   result
0  O=C(NC1CCCC1)Oc1ccc2[nH]cc(CCNCc3ccccc3)c2c1   CC50 at 24 h  18.2 µM
1  CCCNC(=O)Oc1ccc2[nH]cc(CCNCc3ccccc3)c2c1   CC50 at 24 h  31.3 µM
2  O=C(Oc1ccc2[nH]cc(CCNCc3ccccc3)c2c1)N1CCCC1   CC50 at 24 h  31.7 µM
3  CCCCCCNC(=O)Oc1ccc2[nH]cc(CCNCc3ccccc3)c2c1   CC50 at 24 h  16.3 µM

====

# assay_system: AChE (Electrophorus electricus)
# Construct: native enzyme, Type V-S lyophilized powder, Sigma-Aldrich
# Sequence (O42275 24-633): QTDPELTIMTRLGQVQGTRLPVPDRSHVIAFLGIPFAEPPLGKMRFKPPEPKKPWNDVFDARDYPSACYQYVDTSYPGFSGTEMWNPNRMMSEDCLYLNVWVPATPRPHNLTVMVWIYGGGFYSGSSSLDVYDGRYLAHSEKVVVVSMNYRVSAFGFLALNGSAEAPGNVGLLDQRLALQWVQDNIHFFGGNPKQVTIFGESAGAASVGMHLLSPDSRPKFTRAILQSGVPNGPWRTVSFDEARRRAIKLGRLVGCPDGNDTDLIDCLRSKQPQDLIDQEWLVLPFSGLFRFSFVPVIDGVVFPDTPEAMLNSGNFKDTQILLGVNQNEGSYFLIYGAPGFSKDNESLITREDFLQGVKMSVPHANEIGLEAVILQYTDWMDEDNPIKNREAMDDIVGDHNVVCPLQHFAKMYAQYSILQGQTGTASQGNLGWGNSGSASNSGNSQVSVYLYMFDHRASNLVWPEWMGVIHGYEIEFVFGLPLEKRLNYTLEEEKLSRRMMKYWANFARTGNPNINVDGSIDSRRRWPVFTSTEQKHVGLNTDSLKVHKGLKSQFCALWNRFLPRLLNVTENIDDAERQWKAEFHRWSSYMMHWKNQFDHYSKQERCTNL
# assay_protocol: Ellman colorimetric assay
# Type: biochemical
# experimental_conditions: read-out: IC50 ± SD ^a / AChE ^a
pIC50: −log10 of the molar value.
endpoint_name: pIC50

>>> df
                                    compound                     assay_system  operator  numeric_value
 0  CCCNC(=O)Oc1ccc2[nH]cc(CCNCc3ccccc3)c2c1 [3a]  AChE (Electrophorus electricus)         =           5.71
 1  CCCCNC(=O)Oc1ccc2[nH]cc(CCNCc3ccccc3)c2c1 [3b]  AChE (Electrophorus electricus)         =           5.77
 2  O=C(Oc1ccc2[nH]cc(CCNCc3ccccc3)c2c1)N(c1ccccc1)c1ccccc1 [3n]  AChE (Electrophorus electricus)         <           4.00
 3  O=C(NC1CC1)Oc1ccc2[nH]cc(CCNCc3ccccc3)c2c1 [3f]  AChE (Electrophorus electricus)         =           5.50
 4  O=C(Nc1ccccc1)Oc1ccc2[nH]cc(CCNCc3ccccc3)c2c1 [3i]  AChE (Electrophorus electricus)         =           4.63
 5  CN(C(=O)Oc1ccc2[nH]cc(CCNCc3ccccc3)c2c1)c1ccccc1 [3p]  AChE (Electrophorus electricus)         =           5.15
 6  CCN(CC)C(=O)Oc1ccc2[nH]cc(CCNCc3ccccc3)c2c1 [3k]  AChE (Electrophorus electricus)         <           4.00
 7  O=C(Oc1ccc2[nH]cc(CCNCc3ccccc3)c2c1)N1CCCCCC1 [3t]  AChE (Electrophorus electricus)         <           4.00
 8  CCCN(CCC)C(=O)Oc1ccc2[nH]cc(CCNCc3ccccc3)c2c1 [3l]  AChE (Electrophorus electricus)         <           4.00
 9  O=C(NC1CCCC1)Oc1ccc2[nH]cc(CCNCc3ccccc3)c2c1 [3g]  AChE (Electrophorus electricus)         =           4.57
10  CON(C)C(=O)Oc1ccc2[nH]cc(CCNCc3ccccc3)c2c1 [3o]  AChE (Electrophorus electricus)         =           5.58
11   CCCCCCNC(=O)Oc1ccc2[nH]cc(CCN)c2c1 [4d]  AChE (Electrophorus electricus)         <           4.00
12  O=C(Oc1ccc2[nH]cc(CCNCc3ccccc3)c2c1)N1CCOCC1 [3u]  AChE (Electrophorus electricus)         <           4.00
